Reference source: ChEMBL document CHEMBL1155027

assay: Inhibition of chymotrypsin-like activity of human 20S proteasome
Residues, ends and D or L forms follow the SMILES beside them.
metric: IC50 (nM)
Record the value in nM, omitting the unit from your answer.

Sample records with IC50:
CC1(C)[C@@H](OC(=O)c2cccc(C(=O)O)c2)CC[C@]2(C)[C@H]3C(=O)C=C4[C@@H]5C[C@@](C)(C(=O)O)CC[C@]5(C)CC[C@@]4(C)[C@]3(C)CC[C@@H]12 :: 220
CC(C)C(=O)O[C@H]1CC[C@]2(C)[C@H]3C(=O)C=C4[C@@H]5C[C@@](C)(C(=O)O)CC[C@]5(C)CC[C@@]4(C)[C@]3(C)CC[C@H]2C1(C)C :: 1920
CC1(C)[C@@H](OC(=O)c2ccc(C(=O)O)cc2)CC[C@]2(C)[C@H]3C(=O)C=C4[C@@H]5C[C@@](C)(C(=O)O)CC[C@]5(C)CC[C@@]4(C)[C@]3(C)CC[C@@H]12 :: 310
CC(C)(CC(=O)O[C@H]1CC[C@]2(C)[C@H]3C(=O)C=C4[C@@H]5C[C@@](C)(C(=O)O)CC[C@]5(C)CC[C@@]4(C)[C@]3(C)CC[C@H]2C1(C)C)C(=O)O :: 870
CSCC[C@@H](C=O)NC(=O)[C@H](CC(C)C)NC(=O)[C@H](CC(C)C)NC(C)=O (Ac-Leu-Leu-Met-aldehyde) :: 5250
CC1(C)[C@@H](OC(=O)CCCCC(=O)O)CC[C@]2(C)[C@H]3C(=O)C=C4[C@@H]5C[C@@](C)(C(=O)O)CC[C@]5(C)CC[C@@]4(C)[C@]3(C)CC[C@@H]12 :: 290

Query: IC50; subject: `CC1(C)[C@@H](OC(=O)COCC(=O)O)CC[C@]2(C)[C@H]3C(=O)C=C4[C@@H]5C[C@@](C)(C(=O)O)CC[C@]5(C)CC[C@@]4(C)[C@]3(C)CC[C@@H]12` 1930

Query: IC50; subject: CC(C(=O)O)C(C)C(=O)O[C@H]1CC[C@]2(C)[C@H]3C(=O)C=C4[C@@H]5C[C@@](C)(C(=O)O)CC[C@]5(C)CC[C@@]4(C)[C@]3(C)CC[C@H]2C1(C)C (stereo not given in full) 8700
